# measurement.target: human orexin 1 receptors (Homo sapiens (Human))
# assay.explanation: Calcium Accumulation in Cells (FLIPR), antagonism of orexin A
# experimental.conditions: antagonism of orexin A, Cheng-Prusoff corrected; read-out: FLIPR hOx1R Ki
Could you please mark Satisfied for values of Ki below 100 nM and Not satisfied for values at or above it?

compound	class.label
COc1cccc(CNC(=O)COc2cc(C(F)(F)F)c3c(-c4ccccc4)nn(C)c3n2)c1 [Example 1.33]	Not satisfied
Cc1ccc([C@H](C)NC(=O)COc2cc(C)c3c(-c4cnc(C)n4C)nn(C)c3n2)cc1 [Example 4.4]	Not satisfied
CC(NC(=O)COc1cc(C(F)(F)F)c2c(-c3ccccc3)nn(C)c2n1)c1ccccn1 (centres unmarked) [Example 1.29]	Not satisfied
COc1ccc([C@H](C)NC(=O)COc2cc(C(F)F)c3c(-c4cc(C)oc4C)nn(C)c3n2)cc1 [Example 6.39]	Satisfied

Challenge: Dear colleague, could you confirm whether Ki of COc1ccc(CNC(=O)COc2cc(C)c3c(C4CC4)nn(C)c3n2)cc1Cl [Example 7.16] falls below 100 nM? Thanks.
Response given: Not satisfied

Challenge: What would you report for Cc1ccc(-c2nn(C)c3nc(OCC(=O)N[C@@H](C)c4ccccc4)cc(C(F)(F)F)c23)cc1 [Example 1.48] ?
Response given: Not satisfied

Challenge: What would you report for Cc1cc(-c2nn(C)c3nc(OCC(=O)NC(C)c4c(C)nn(C)c4C)cc(C)c23)c(C)o1 (centres unmarked) [Example 6.33] ?
Response given: Satisfied

###

# measurement.target: human orexin 1 receptors (Homo sapiens (Human))
# assay.explanation: Calcium Accumulation in Cells (FLIPR), antagonism of orexin A
# experimental.conditions: antagonism of orexin A, Cheng-Prusoff corrected; read-out: FLIPR hOx1R Ki
assay.endpoint: pKi
pKi here: minus log base 10 of the concentration, concentration in moles per litre.

Check out these entries, answers already filled in.
compound	pKi
Cc1ccc([C@H](C)NC(=O)COc2cc(C)c3c(-c4nc(C)cs4)nn(C)c3n2)cc1 [Example 5.1]	8.00
COc1ccc([C@H](C)NC(=O)COc2cc(C(F)(F)F)c3c(-c4cc(C)oc4C)nn(C)c3n2)cc1 [Example 6.80]	8.22

Let us examine a further case.
Challenge: Recorded pKi for COc1ccc([C@H](C)NC(=O)COc2cc(C)c3c(C(C)C)nn(C)c3n2)cc1 [Example 6.27] with human orexin 1 receptors (Homo sapiens (Human)), please?
Response given: 6.38

###

# measurement.target: human orexin 1 receptors (Homo sapiens (Human), UniProt O43613)
# Sequence (O43613 whole entry): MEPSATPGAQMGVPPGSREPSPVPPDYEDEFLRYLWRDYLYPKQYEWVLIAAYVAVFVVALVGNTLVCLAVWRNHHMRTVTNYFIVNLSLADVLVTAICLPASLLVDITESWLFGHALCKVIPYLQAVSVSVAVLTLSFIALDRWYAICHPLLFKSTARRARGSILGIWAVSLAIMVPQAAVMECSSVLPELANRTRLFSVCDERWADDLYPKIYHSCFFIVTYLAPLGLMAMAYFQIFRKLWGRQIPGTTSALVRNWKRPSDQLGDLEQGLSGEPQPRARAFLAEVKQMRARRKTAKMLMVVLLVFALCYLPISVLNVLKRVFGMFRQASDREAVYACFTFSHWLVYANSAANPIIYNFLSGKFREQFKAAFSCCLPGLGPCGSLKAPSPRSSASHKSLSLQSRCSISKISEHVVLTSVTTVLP
# assay.explanation: Radioligand Binding Assay II ([3H]-SB649868 competition, cell membranes)
# experimental.conditions: read-out: binding II hOx1R Kd
This listing pairs compounds with measured Kd.
Write the quantity with the unit trailing the number.

Check out these entries, answers already filled in.
compound	assay.endpoint	measurement
Cc1ccc([C@H](C)NC(=O)COc2cc(C)c3c(-c4nccs4)nn(C)c3n2)cc1	Kd	0.003 µM
COc1ccc([C@H](C)NC(=O)COc2cc(C)c3c(-c4cc(OC)cc(OC)c4)nn(C)c3n2)cc1	Kd	0.019 µM
Cc1ccc2c(c1)CCC2NC(=O)COc1cc(C)c2c(C3CC3)nn(C)c2n1 (stereo not shown)	Kd	0.908 µM

Let us examine a further case.
Challenge: I am curious: what Kd value has been reported for COc1ccc([C@H](C)NC(=O)COc2cc(C)c3c(-c4cc(C)oc4C)nn(C)c3n2)cc1 ?
Response given: 0.04 µM

###

# measurement.target: human orexin 2 receptors (Homo sapiens (Human))
# Sequence (O43614 whole entry): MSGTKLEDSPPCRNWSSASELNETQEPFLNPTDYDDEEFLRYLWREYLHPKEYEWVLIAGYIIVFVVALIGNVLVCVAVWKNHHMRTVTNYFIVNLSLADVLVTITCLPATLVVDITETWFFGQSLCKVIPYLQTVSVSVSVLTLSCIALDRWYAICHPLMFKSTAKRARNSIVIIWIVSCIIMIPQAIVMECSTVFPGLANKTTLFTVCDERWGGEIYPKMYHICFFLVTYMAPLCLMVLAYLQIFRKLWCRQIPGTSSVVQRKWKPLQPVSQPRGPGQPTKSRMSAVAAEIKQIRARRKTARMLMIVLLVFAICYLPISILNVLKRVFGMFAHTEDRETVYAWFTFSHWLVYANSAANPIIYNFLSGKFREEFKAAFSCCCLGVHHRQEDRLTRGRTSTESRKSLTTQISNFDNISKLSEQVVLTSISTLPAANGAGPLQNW
# assay.explanation: Calcium Accumulation in Cells (FLIPR), antagonism of orexin A
# Type: cell-based
# experimental.conditions: measured at a concentration of 10 μM of compound; read-out: FLIPR hOx2R % inhibition value
This listing pairs compounds with measured inhibition at 10 µM.

Check out these entries, answers already filled in.
compound	measurement
Cc1cc(OCC(=O)NCCCc2ccccc2)nc2c1c(C1CC1)nn2C	42%
Cc1cc(OCC(=O)N[C@H]2CCc3cc(OC(C)C)ccc32)nc2c1c(C1CC1)nn2C	31%
Cc1cc(OCC(=O)NCc2cccc3[nH]ncc23)nc2c1c(C1CC1)nn2C	18%
Cc1ccnc(C(C)NC(=O)COc2cc(C)c3c(C4CC4)nn(C)c3n2)c1 (centres unmarked)	22%
Cc1ccc2c(c1)C(NC(=O)COc1cc(C)c3c(C4CC4)nn(C)c3n1)CC2 (centres unmarked)	37%
Cc1csc(C(C)NC(=O)COc2cc(C)c3c(C4CC4)nn(C)c3n2)n1 (centres unmarked)	32%
Cc1n[nH]c(C)c1[C@@H](C)NC(=O)COc1cc(C(F)(F)F)c2c(-c3ccccc3)nn(C)c2n1	36%
Cc1cc(OCC(=O)N[C@@H](C)C2CCCC2)nc2c1c(C1CC1)nn2C	< 10%

Challenge: Recorded inhibition at 10 µM for C[C@H](NC(=O)COc1cc(C(F)(F)F)c2c(-c3ccncc3)nn(C)c2n1)c1ccccc1 with human orexin 2 receptors (Homo sapiens (Human)), please?
Response given: 52%

Challenge: What would you report for C[C@H](NC(=O)COc1cc(C(F)(F)F)c2c(-c3ccccn3)nn(C)c2n1)c1ccccc1 ?
Response given: 29%

Challenge: What would you report for Cn1nc(-c2ccccc2)c2c(C(F)(F)F)cc(OCC(=O)NC3CC3)nc21 ?
Response given: 36%

Challenge: What would you report for Cc1nn(C)c(C)c1C(C)NC(=O)COc1cc(C)c2c(C(C)C)nn(C)c2n1 (centres unmarked) ?
Response given: 34%

Challenge: What would you report for Cc1cc(OCC(=O)NC2CCCC2)nc2c1c(C1CC1)nn2C ?
Response given: 26%

Challenge: What would you report for CCOc1ccc(CNC(=O)COc2cc(C)c3c(C4CC4)nn(C)c3n2)cc1 ?
Response given: 24%

Challenge: What would you report for CCn1cnnc1C(C)NC(=O)COc1cc(C(F)(F)F)c2c(-c3ccccc3)nn(C)c2n1 (centres unmarked) ?
Response given: 22%

Challenge: What would you report for Cc1cccc(C(C)NC(=O)COc2cc(C)c3c(C4CC4)nn(C)c3n2)n1 (centres unmarked) ?
Response given: 21%

Challenge: What would you report for Cc1cc(OCC(=O)NCc2ccc3c(c2)CCO3)nc2c1c(C1CC1)nn2C ?
Response given: 26%

###

This listing pairs compounds with measured log10(Kd).
# measurement.target: human orexin 1 receptors (Homo sapiens (Human), UniProt O43613)
# assay.explanation: Radioligand Binding Assay I ([125I]orexin A competition, cell membranes)
# experimental.conditions: read-out: binding I hOx1R Kd
Answers are given as log10 of Kd in nM.

Check out these entries, answers already filled in.
compound	measurement
C[C@H](NC(=O)COc1cc(C(F)(F)F)c2c(-c3ccccc3F)nn(C)c2n1)c1ccccc1	2.27
Cc1ccc(-c2nn(C)c3nc(OCC(=O)N[C@@H](C)c4ccccc4)cc(C(F)(F)F)c23)cc1	2.69

Challenge: I am curious: what log10(Kd) value has been reported for Cn1nc(-c2cccc(F)c2)c2c(C(F)(F)F)cc(OCC(=O)N[C@H]3CCc4ccccc43)nc21 ?
Response given: 2.31

Challenge: What would you report for C[C@H](NC(=O)COc1cc(C(F)(F)F)c2c(-c3cccc(Br)c3)nn(C)c2n1)c1ccccc1 ?
Response given: 2.23

Challenge: What would you report for COc1cccc(C(C)NC(=O)COc2cc(C(F)(F)F)c3c(-c4ccccc4)nn(C)c3n2)c1 (stereo not shown) ?
Response given: 1.62

Challenge: What would you report for CCn1nccc1C(C)NC(=O)COc1cc(C(F)(F)F)c2c(-c3ccccc3)nn(C)c2n1 (stereo not shown) ?
Response given: 2.52

###

# measurement.target: human orexin 2 receptors (Homo sapiens (Human))
# assay.explanation: Calcium Accumulation in Cells (FLIPR), antagonism of orexin A
# experimental.conditions: antagonism of orexin A, Cheng-Prusoff corrected; read-out: FLIPR hOx2R Ki
assay.endpoint: pKi
pKi here: minus log base 10 of the concentration, concentration in moles per litre.

compound	measurement.target	pKi
COc1ccc(C(C)NC(=O)COc2cc(C(F)F)c3c(-c4ccccc4)nn(C)c3n2)cn1 (stereo not shown)	human orexin 2 receptors (Homo sapiens (Human))	7.43

Challenge: I am curious: what pKi value has been reported for COc1ccnc(-c2nn(C)c3nc(OCC(=O)N[C@@H](C)c4ccc(C)cc4)cc(C)c23)c1 ?
Response given: 8.00

Challenge: What would you report for Cc1cc(OCC(=O)NC(C)c2ccc3c(ccn3C)c2)nc2c1c(C1CC1)nn2C (stereo not shown) ?
Response given: 7.20

Challenge: What would you report for Cc1ccc2c(n1)CC[C@@H]2NC(=O)COc1cc(C(F)F)c2c(C3CC3)nn(C)c2n1 ?
Response given: 7.30

###

# measurement.target: human orexin 1 receptors (Homo sapiens (Human), UniProt O43613)
# assay.explanation: Calcium Accumulation in Cells (FLIPR), antagonism of orexin A
# Assay type: cell-based
# experimental.conditions: measured at a concentration of 10 μM of compound; read-out: FLIPR hOx1R % inhibition value
assay.endpoint: inhibition at 10 µM (%)
Write down the numeric answer in % and omit the unit.

Challenge: I am curious: what inhibition at 10 µM value has been reported for Cc1cc(OCC(=O)NC(C)c2cnn(C)c2)nc2c1c(C1CC1)nn2C (centres unmarked) ?
Response given: 34

Challenge: What would you report for COc1ccc(CNC(=O)COc2cc(C)c3c(C4CC4)nn(C)c3n2)c(OC)c1 ?
Response given: 48

Challenge: What would you report for Cc1cc(OCC(=O)NC(C)c2cccnc2)nc2c1c(-c1ccccc1)nn2C (centres unmarked) ?
Response given: 26

Challenge: What would you report for Cc1cc(OCC(=O)NC(C)c2ccncc2)nc2c1c(-c1ccccc1)nn2C (centres unmarked) ?
Response given: 27

Challenge: What would you report for Cc1cc(OCC(=O)NCC2CCCCC2)nc2c1c(C1CC1)nn2C ?
Response given: 18

Challenge: What would you report for Cc1cccc(C(C)NC(=O)COc2cc(C)c3c(C4CC4)nn(C)c3n2)n1 (centres unmarked) ?
Response given: 32
